This collection of values is drawn from patent US11319341B2.

EXPERIMENTAL PROTOCOL: Water solubility of freeze-dried compounds in water (observation and HPLC)
Residues, ends and D or L forms follow the SMILES beside them. *: point of attachment. Doxorubicin(3'-N) = COc1cccc2c1C(=O)c1c(O)c3c(c(O)c1C2=O)C[C@@](O)(C(=O)CO)C[C@@H]3O[C@H]1C[C@H](N*)[C@H](O)[C@H](C)O1; Hexanoyl(6-maleimido) = O=C1C=CC(=O)N1CCCCCC(=O)*; Propanoyl(3-maleimido) = O=C1C=CC(=O)N1CCC(=O)*; PEG4 = NCCOCCOCCOCCOCCC(=O)O
# solubility values compiled below

Examples with answers:
| COMPOUND | solubility |
| --- | --- |
| COc1cccc2c1C(=O)c1c(O)c3c(c(O)c1C2=O)C[C@@](O)(C(=O)CO)C[C@@H]3O[C@H]1C[C@H](NC(=O)[C@H](CC(C)C)NC(=O)[C@H](CC(N)=O)NC(=O)[C@H](C)NC(=O)[C@H](C)NC(=O)[C@H](CC(=O)O)NC(=O)CCN2C(=O)C=CC2=O)[C@H](O)[C@H](C)O1 [QHL-114] ({Propanoyl(3-maleimido)}-DAANL-{Doxorubicin(3'-N)}) | > 15 mg/mL |
| COc1cccc2c1C(=O)c1c(O)c3c(c(O)c1C2=O)C[C@@](O)(C(=O)CO)C[C@@H]3O[C@H]1C[C@H](NC(=O)[C@H](CC(C)C)NC(=O)[C@H](CC(N)=O)NC(=O)[C@H](C)NC(=O)[C@H](C)NC(=O)[C@H](CCC(=O)O)NC(=O)CCOCCOCCOCCOCCNC(=O)CCN2C(=O)C=CC2=O)[C@H](O)[C@H](C)O1 [QHL-051] ({Propanoyl(3-maleimido)-PEG4}-EAANL-{Doxorubicin(3'-N)}) | > 25 mg/mL |

Note: attention shifts to another entry.
Challenge: Fill in: solubility of COc1cccc2c1C(=O)c1c(O)c3c(c(O)c1C2=O)C[C@@](O)(C(=O)CO)C[C@@H]3O[C@H]1C[C@H](NC(=O)[C@H](CC(C)C)NC(=O)[C@H](CC(N)=O)NC(=O)[C@H](C)NC(=O)[C@H](C)NC(=O)[C@H](CS)NC(=O)CCCCCN2C(=O)C=CC2=O)[C@H](O)[C@H](C)O1 [QHL-131] ({Hexanoyl(6-maleimido)}-CAANL-{Doxorubicin(3'-N)}) is ___
Response given: > 10 mg/mL
